Data provenance: patent US20140221613A1

target desc: human immunoglobulin IgG
recorded metric: koff (s⁻¹)
Numbers only, in s⁻¹.

[[record]]
binder = "OXADac-PG16 (designed binder) MGAGTPVTAPLAGTIWKVLASEGQTVAAGEVLLILEAMKMETEIRAAQAGTVRGIAVKAGDAVAVGDTLMTLAGSGSDLYDDDDKGIITSLYKKAGSAAAPFTDTYKLILNGKTLKGETITEAVDAATAEKVFKQYANEHGVDGEWTYDPETKTFTVTE"
recorded_metric = "koff"
measured_result = 0.00013

[[record]]
binder = "OXADac-PG07 (designed binder) MGAGTPVTAPLAGTIWKVLASEGQTVAAGEVLLILEAMKMETEIRAAQAGTVRGIAVKAGDAVAVGDTLMTLAGSGSDLYDDDDKGIITSLYKKAGSAAAPFTDTYKLILNGKTLKGETTTEAVDAATAEKVFKQYANEHGVDGEWTYDPETKTFTVTE"
recorded_metric = "koff"
measured_result = 0.00011

[[record]]
binder = "OXADac-PG13 (designed binder) MGAGTPVTAPLAGTIWKVLASEGQTVAAGEVLLILEAMKMETEIRAAQAGTVRGIAVKAGDAVAVGDTLMTLAGSGSDLYDDDDKGIITSLYKKAGSAAAPFTDTYKLILNGKTLKGETTTEAVDAATAEKVFKQYANEHGVHGEWTYDPETKTFTVTE"
recorded_metric = "koff"
measured_result = 0.06


Here is another binder to look at.
State the recorded koff for this entry: OXADac-PG17 (designed binder) MGAGTPVTAPLAGTIWKVLASEGQTVAAGEVLLILEAMKMETEIRAAQAGTVRGIAVKAGDAVAVGDTLMTLAGSGSDLYDDDDKGIITSLYKKAGSAAAPFTDTYKLILNGKRLKGETITEAVDAATAEKVFKQYANEHGVDGEWTYDPETKTFTVTE
0.032
